Biological target: Neuronal acetylcholine receptor subunit alpha-7 (Homo sapiens)
Sequence (P36544 whole entry): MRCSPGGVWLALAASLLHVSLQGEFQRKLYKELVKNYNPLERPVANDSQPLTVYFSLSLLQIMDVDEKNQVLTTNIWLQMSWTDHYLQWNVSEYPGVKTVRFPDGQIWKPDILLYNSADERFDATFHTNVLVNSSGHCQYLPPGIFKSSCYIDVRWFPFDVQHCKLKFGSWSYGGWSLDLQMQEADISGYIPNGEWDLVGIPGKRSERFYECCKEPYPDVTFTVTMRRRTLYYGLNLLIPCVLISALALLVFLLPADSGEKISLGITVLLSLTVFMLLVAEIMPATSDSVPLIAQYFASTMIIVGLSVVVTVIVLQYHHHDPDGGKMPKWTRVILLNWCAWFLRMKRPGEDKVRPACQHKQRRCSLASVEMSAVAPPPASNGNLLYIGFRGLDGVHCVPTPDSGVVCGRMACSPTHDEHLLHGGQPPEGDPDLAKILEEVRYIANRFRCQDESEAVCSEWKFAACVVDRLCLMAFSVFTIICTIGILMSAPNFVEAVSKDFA
Experiment: Displacement of [125I]alpha-bungarotoxin from human alpha-7 nAChR expressed in SH-SY5Y cells
Lab note: cut-off is 30 µM. Strictly less in IC50 is met. Exactly 30 µM or more is not met.

- COMPOUND: "COc1cc2c(cc1O)C[C@H]1c3c(cc(OC)c(OC)c3-2)CC[N+]1(C)C"
  CLASSIFICATION: "met"
- COMPOUND: "COc1cc2c(cc1O)C[C@H]1c3c(c(Br)c(O)c(OC)c3-2)CCN1C [3-BROMOBOLDINE]"
  CLASSIFICATION: "not met"
- COMPOUND: "COc1cc2c(cc1OC)-c1c(OC)c(O)cc3c1[C@H](C2)[N+](C)(C)CC3 [PREDICENTRINE METHIODIDE]"
  CLASSIFICATION: "met"
- COMPOUND: "COc1cc2c(c(Br)c1O)C[C@H]1c3c(c(Br)c(O)c(OC)c3-2)CCN1C"
  CLASSIFICATION: "not met"
- COMPOUND: "COc1cc2c(cc1O)C[C@H]1c3c(cc(O)c(OC)c3-2)CC[N+]1(C)C [BOLDINE METHIODIDE]"
  CLASSIFICATION: "met"
- COMPOUND: "COc1cc2c(cc1O)C[C@H]1c3c(cc(O)c(OC)c3-2)CCN1C [BOLDINE]"
  CLASSIFICATION: "not met"

Attention now turns to another entry.
Request: Below 30 µM on IC50? Entry COc1cc2c(cc1OC)-c1c(OC)c(OC)cc3c1[C@H](C2)[N+](C)(C)CC3 [GLAUCINE METHIODIDE]
Result: met

###

Molecular target: Neuronal acetylcholine receptor; alpha4/beta2 (Homo sapiens, UniProt P17787+P43681)
Sequence (P17787 whole entry): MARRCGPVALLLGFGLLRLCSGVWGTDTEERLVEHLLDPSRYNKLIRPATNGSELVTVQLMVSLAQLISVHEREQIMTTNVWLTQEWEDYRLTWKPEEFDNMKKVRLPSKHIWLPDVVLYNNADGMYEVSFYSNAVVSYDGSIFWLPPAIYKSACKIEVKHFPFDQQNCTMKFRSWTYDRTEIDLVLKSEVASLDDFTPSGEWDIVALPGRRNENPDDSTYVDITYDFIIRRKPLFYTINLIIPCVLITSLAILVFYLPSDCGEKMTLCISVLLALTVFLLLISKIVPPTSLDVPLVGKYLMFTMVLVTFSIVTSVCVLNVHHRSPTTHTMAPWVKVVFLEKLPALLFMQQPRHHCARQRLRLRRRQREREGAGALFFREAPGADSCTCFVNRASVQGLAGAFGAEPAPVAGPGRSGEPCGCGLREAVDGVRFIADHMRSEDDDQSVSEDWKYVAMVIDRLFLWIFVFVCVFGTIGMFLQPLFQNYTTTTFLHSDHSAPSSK
Sequence (P43681 whole entry): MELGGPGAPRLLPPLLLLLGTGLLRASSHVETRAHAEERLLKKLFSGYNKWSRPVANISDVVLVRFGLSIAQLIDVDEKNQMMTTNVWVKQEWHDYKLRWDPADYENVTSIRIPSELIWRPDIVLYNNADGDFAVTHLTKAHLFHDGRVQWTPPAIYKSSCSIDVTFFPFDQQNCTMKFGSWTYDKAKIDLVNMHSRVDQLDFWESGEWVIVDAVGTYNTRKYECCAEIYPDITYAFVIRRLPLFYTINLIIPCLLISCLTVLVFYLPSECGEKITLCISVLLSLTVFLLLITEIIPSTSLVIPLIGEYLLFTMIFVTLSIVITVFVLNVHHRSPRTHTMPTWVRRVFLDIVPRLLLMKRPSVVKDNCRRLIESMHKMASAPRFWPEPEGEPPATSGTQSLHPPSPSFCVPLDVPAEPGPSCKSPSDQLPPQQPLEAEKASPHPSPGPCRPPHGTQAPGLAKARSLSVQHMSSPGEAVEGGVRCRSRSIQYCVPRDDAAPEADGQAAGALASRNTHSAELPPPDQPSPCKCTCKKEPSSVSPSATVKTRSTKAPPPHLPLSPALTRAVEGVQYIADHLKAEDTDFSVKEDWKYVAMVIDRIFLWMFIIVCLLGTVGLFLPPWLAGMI
Experiment: Displacement of [3H]cytisine from human alpha-4-beta-2 nAChR expressed in SH-EP1 cells
READOUT_NAME: pIC50
# log scale: pIC50 equals minus log10 of the concentration in mol/L

Examples with answers:
- COMPOUND: "COc1cc2c(cc1O)C[C@H]1c3c(cc(O)c(OC)c3-2)CCN1C [BOLDINE]"
  TARGET_OR_SYSTEM: "Neuronal acetylcholine receptor; alpha4/beta2 (Homo sapiens, UniProt P17787+P43681)"
  pIC50: 5.00
- COMPOUND: "COc1cc2c(cc1OC)-c1c(OC)c(OC)cc3c1[C@H](C2)[N+](C)(C)CC3 [GLAUCINE METHIODIDE]"
  TARGET_OR_SYSTEM: "Neuronal acetylcholine receptor; alpha4/beta2 (Homo sapiens, UniProt P17787+P43681)"
  pIC50: 4.47
- COMPOUND: "COc1cc2c(cc1O)C[C@H]1c3c(cc(OC)c(OC)c3-2)CC[N+]1(C)C"
  TARGET_OR_SYSTEM: "Neuronal acetylcholine receptor; alpha4/beta2 (Homo sapiens, UniProt P17787+P43681)"
  pIC50: 5.52
- COMPOUND: "COc1cc2c(cc1O)C[C@H]1c3c(c(Br)c(O)c(OC)c3-2)CCN1C [3-BROMOBOLDINE]"
  TARGET_OR_SYSTEM: "Neuronal acetylcholine receptor; alpha4/beta2 (Homo sapiens, UniProt P17787+P43681)"
  pIC50: 4.00
- COMPOUND: "COc1cc2c(cc1O)C[C@H]1c3c(cc(O)c(OC)c3-2)CC[N+]1(C)C [BOLDINE METHIODIDE]"
  TARGET_OR_SYSTEM: "Neuronal acetylcholine receptor; alpha4/beta2 (Homo sapiens, UniProt P17787+P43681)"
  pIC50: 5.09
- COMPOUND: "COc1cc2c(c(Br)c1O)C[C@H]1c3c(c(Br)c(O)c(OC)c3-2)CCN1C"
  TARGET_OR_SYSTEM: "Neuronal acetylcholine receptor; alpha4/beta2 (Homo sapiens, UniProt P17787+P43681)"
  pIC50: 4.00

Then there is this compound:
// pIC50 lookup, compound = COc1cc2c(cc1OC)-c1c(OC)c(O)cc3c1[C@H](C2)[N+](C)(C)CC3 [PREDICENTRINE METHIODIDE] , result: 5.49
